B1: Pistol ribozyme (parent)
chain: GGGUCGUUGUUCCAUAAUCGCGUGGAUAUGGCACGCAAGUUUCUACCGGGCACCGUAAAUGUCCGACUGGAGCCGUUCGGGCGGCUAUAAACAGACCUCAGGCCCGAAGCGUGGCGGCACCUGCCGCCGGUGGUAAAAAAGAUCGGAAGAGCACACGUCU

- Variants of: B1
- procedure text: aptazyme ON/OFF ratio, guanine; higher = stronger switching; co-transcriptional cleavage with and without guanine
measured property: aptazyme ON/OFF ratio
One number for each entry.

# batch size: 4; output aptazyme ON/OFF ratio per entry
1. U7G U8A G9C U11A C12A C13G
2. U7G U8G U10C U11C C12G C13U
3. U7G U8A U10G U11G
4. G9U U10G U11A C12G C13U

## Result
1.05
1.45
1.59
1.07

# batch size: 7; output aptazyme ON/OFF ratio per entry
1. U8C U10G U11A C12U
2. U7A U8A G9C U11C C12A
3. U7C U8G G9A U11G C12A
4. U7G U8C U10G U11G C12U
5. U7A U8G G9U U10C U11C C12U
6. U7G U8G G9C U10C U11G C12A C13U
7. U7G U8A G9C U10C U11G C13U

## Result
1: 1.08; 2: 1.07; 3: 1.09; 4: 1.43; 5: 1.36; 6: 1.3; 7: 1.03

# batch size: 5; output aptazyme ON/OFF ratio per entry
1. U7A U11A C12G C13G
2. U7C U8C G9A U10G C12U C13G
3. U7G U8C G9U U11G C12G C13U
4. U7G G9U U10C C12A C13A
5. U7G U8G G9C U11C C12A C13G

## Result
1: 1.14; 2: 1.16; 3: 1.09; 4: 1.42; 5: 1.13

# batch size: 7; output aptazyme ON/OFF ratio per entry
1. U7A U8A G9U U10G U11C C12G C13U
2. U7C U8C G9A U10C U11G C13G
3. U7A G9C U10C U11A C12U C13G
4. U8A U10C C13A
5. U8A G9A U10A U11C C12G C13G
6. U7A U8A G9A U11G C12A
7. U7C U8A U10G U11A C12G C13A

## Result
1. 1.24
2. 1.15
3. 1.08
4. 1.05
5. 1.21
6. 1.11
7. 1.12

FYI, the data here is from the RNAGym collection of RNA variant scans (doi:10.1021/acssynbio.7b00057).
